# TARGET_UNDER_TEST: T1, importin-α3 (residues 1–520), recombinant (UniProt O00629 1-520)
# T1 construct: importin-α3 (KPNA4), residues 1–520, codon-optimized synthetic vector (Nzytech); called a 58 kDa protein with 6 tryptophans; also called KPNA4; importin-alpha3; source: final Superdex G200 16/60
# T1 sequence (looked up): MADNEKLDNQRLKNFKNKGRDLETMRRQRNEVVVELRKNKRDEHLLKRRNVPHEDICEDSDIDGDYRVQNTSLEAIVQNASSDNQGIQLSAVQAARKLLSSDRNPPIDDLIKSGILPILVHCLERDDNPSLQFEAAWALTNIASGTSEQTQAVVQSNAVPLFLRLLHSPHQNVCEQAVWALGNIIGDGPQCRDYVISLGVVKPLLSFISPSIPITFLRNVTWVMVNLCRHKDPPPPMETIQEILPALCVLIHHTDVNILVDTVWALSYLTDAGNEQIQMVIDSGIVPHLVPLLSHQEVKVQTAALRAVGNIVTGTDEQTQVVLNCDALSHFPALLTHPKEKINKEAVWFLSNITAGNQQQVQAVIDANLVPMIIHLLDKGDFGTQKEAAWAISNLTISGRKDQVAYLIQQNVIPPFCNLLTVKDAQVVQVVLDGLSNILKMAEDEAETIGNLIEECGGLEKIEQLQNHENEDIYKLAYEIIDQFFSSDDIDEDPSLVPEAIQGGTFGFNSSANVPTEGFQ
# PROCEDURE_TEXT: ITC; as a3 with ZZW-115 kept constant at 100 μM during the titration; analysed as an apparent quasibinary system and as an exact ternary system; 25°C
# EXPERIMENTAL_SETUP: both partners purified
ASSAY_READOUT: pKd
# log scale: pKd equals minus log10 of the concentration in mol/L

IN: # input binder: NUPR1 (recombinant, purified) (natural protein, UniProt O60356 1-82, looked up, Nuclear Protein 1 (NUPR1), described as an intrinsically disordered protein of 82 amino acids with two tyrosines (Tyr30, Tyr36); also called Nuclear Protein 1; rNUPR1; source: expressed and purified as described (12)) MATFPPATSAPQQPPGPEDEDSSLDESDLYSLAHSYLGGGGRKGRTKREAAANTNRPSPGGHERKLVTKLQNSERKKRGARR ; wanted: its pKd
OUT: 4.46
